- experiment description: Solubility in water per Japanese Pharmacopoeia (13th Amendment)
- condition details: 20 °C, thermodynamic from solid

| molecule | relation qualifier | solubility at 30 min / µg/mL |
| --- | --- | --- |
| CC(=O)Oc1ccccc1C(=O)O | = | 3630 |
| CCOc1ccccc1C(N)=O [Ethenzamide] | < | 100 |
